# method description: MM1S myeloma cell viability, profiling panel, resazurin fluorescence, basal, 24 h, PK04 Diversity Set (AID 1174);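 note: MM1S multiple myeloma cell line; test concentration not given here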
# test conditions: higher = more signal, called active from +8 up or from −8 down
Active and inactive are the calls of the source.
reported endpoint: z-score

The examples below pair each entry with its known result.
compound=COC(=O)C[C@H]1O[C@]2(C(=O)N(Cc3ccccc3)c3ccc(NC(C)=O)cc32)[C@@H](C)[C@@H]1[Si](C)(C)c1ccc(OC)cc1 reported_endpoint=z-score observed_result="-1.33 (inactive)"
compound=CCOC(=O)[C@H]1C/C=C/C[C@H](C(=O)OCC)C(=O)O[C@H]2[C@@H](OC)O[C@H](CO)[C@@H](OC(=O)Nc3ccc4c(c3)OCO4)[C@@H]2OC1=O reported_endpoint=z-score observed_result="-6.98 (inactive)"
compound=CCCCC=C[C@@H](NC(=O)c1ccco1)c1ccccc1 reported_endpoint=z-score observed_result="0.356 (inactive)"
compound="CCCCCCCCCCC(O)C1C=CC2C(=O)N(Cc3ccccc3)C(=O)C2N1n1cnnc1 (centres undefined)" reported_endpoint=z-score observed_result="-1.39 (inactive)"
compound=COCCOC(=O)N1C(=O)[C@@]2(c3ccccc31)[C@H](C(=O)NC[C@H](O)c1ccccc1)[C@H]1C(=O)O[C@H](c3ccccc3)[C@H](c3ccccc3)N1[C@@H]2c1ccc(OCCO)cc1 reported_endpoint=z-score observed_result="-1.04 (inactive)"

Supply measured z-score of O=C(O)[C@H]1C[C@H]2C(=O)NCC(=O)N2[C@H]1c1ccc(O)cc1 in your reply.
0.866 (inactive)

Supply measured z-score of Cc1ccc(S[C@]2(C(=O)NCC(C)C)CC(=O)N(Cc3ccccc3Cl)[C@@H]2c2ccc(CO)cc2)cc1 in your reply.
0.196 (inactive)

Supply measured z-score of C=C(CCCC)/C(=C/C[C@H](OC(C)=O)c1ccc(CO)o1)c1cnc2ccccc2c1 in your reply.
-0.735 (inactive)

Supply measured z-score of CN(C)C(=O)[C@]1(CCC(=O)OC(C)(C)C)N=C(c2ccc(OCCCO)cc2)O[C@@H]1c1ccccc1N=[N+]=[N-] in your reply.
-0.556 (inactive)

Supply measured z-score of CN(C)CCCCNC(=O)[C@H]1C[C@H]2C(=O)N[C@@H](Cc3ccccc3)C(=O)N2[C@H]1c1ccc(O)cc1 in your reply.
-0.0866 (inactive)

Supply measured z-score of COCCOC(=O)N1C(=O)[C@@]2(c3cc(C#CC4=CCCCC4)ccc31)[C@H](C(=O)N1CCc3cc(OC)c(OC)cc3C1)[C@H]1C(=O)O[C@H](c3ccccc3)[C@H](c3ccccc3)N1[C@@H]2c1ccccc1OCCO in your reply.
0.224 (inactive)

Supply measured z-score of COCCOC(=O)N1C(=O)[C@@]2(c3cc(C#CCCO)ccc31)[C@H](c1ccccc1OCCO)N1[C@H](c3ccccc3)[C@H](c3ccccc3)OC(=O)[C@H]1[C@@H]2C(=O)N1CCN(c2ncccn2)CC1 in your reply.
-0.285 (inactive)

Supply measured z-score of CC(C)(C)N1CC=CC23O[C@@H]4C=CCOC(=O)[C@@H]4[C@H]2C(=O)N(CCCCCO)[C@@H]3C1=O (some centres undefined) in your reply.
-0.728 (inactive)

Supply measured z-score of COCCOC(=O)N1C(=O)[C@@]2(c3cc(C#CC4=CCCCC4)ccc31)[C@H](C(=O)NC[C@H](O)c1ccccc1)[C@H]1C(=O)O[C@H](c3ccccc3)[C@H](c3ccccc3)N1[C@@H]2c1ccc(O)cc1 in your reply.
-0.925 (inactive)

Supply measured z-score of [N-]=[N+]=NCc1ccccc1C[C@@]1(C(=O)NCC(O)CO)N=C(c2ccc(OCCCO)cc2)O[C@@H]1c1ccccc1CN=[N+]=[N-] (some centres undefined) in your reply.
-1.3 (inactive)

----------
# method description: E. coli acrAB mutant growth effects, primary screen, E. coli filamentation inducers, strain DRC39, OD650, 48 h (AID 1179);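 note: screen aims at cell division blockers that make cells filament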
# test conditions: E. coli DRC39 delta-acrAB growth, higher = more signal, called active from +8 up or from −8 down
Overview of reported z-score across a group of molecules:
Response field accepts a number only; no unit should be typed.

The examples below pair each entry with its known result.
molecule=C=C[C@@H](COC(C)=O)N(Cc1ccccc1[N+](=O)[O-])S(=O)(=O)c1ccc(Br)cc1 observed_result=0.911
molecule="CC(C)(C)N1CC=CC23O[C@@H]4/C=C\\CCCOC(=O)C4[C@H]2C(=O)N(CCO)[C@@H]3C1=O (stereo partly drawn)" observed_result=-0.814

Supply measured z-score of O=C1OCCC/C=C\[C@H]2OC34C=CCN(Cn5nnc6ccccc65)C(=O)[C@H]3N(CCCCCO)C(=O)[C@@H]4C12 (stereo partly drawn) in your reply.
-0.0083

Supply measured z-score of CC(C)(C)OC(=O)CC[C@@]1(C(=O)NCCN2CCOCC2)N=C(c2ccc(OCCCO)cc2)O[C@@H]1c1ccccc1 in your reply.
1.32

Supply measured z-score of C=CCN1C(=O)[C@]2(O[C@H](CCO)[C@@H]([Si](C)(C)c3ccc(OC)cc3)[C@@H]2C)c2cc(NC(=O)[C@H](C)O)ccc21 in your reply.
-0.955

Supply measured z-score of CC(C)=CCCC(C)=CC(O)C1C=CC2C(=O)N(c3ccccc3)C(=O)C2N1Nc1ccccc1 (stereo not drawn) in your reply.
-0.927

Supply measured z-score of Cc1cc(C)c(C(O)C2C=CC3C(=O)N(c4ccccc4)C(=O)C3N2Nc2ccc(C#N)cc2)c(C)c1 (stereo not drawn) in your reply.
-0.185

Supply measured z-score of CC(=O)Nc1cc(Br)ccc1C(=O)O in your reply.
-0.535

----------
# method description: basal RPMI8226 mitochondrial membrane potential changes, profiling panel, cell-based, JC-1 fluorescence, 24 h, 100 nL compound (AID 1169); note: test concentration not given here
# test conditions: RPMI8226 myeloma, JC-1 mitochondrial potential fluorescence, higher = more signal
reported endpoint: z-score
Response field accepts a number only; no unit should be typed.

The examples below pair each entry with its known result.
compound=C=CCOC(=O)[C@H]1[C@@H]2C(=O)O[C@@H](c3ccccc3)[C@@H](c3ccccc3)N2[C@@H](c2ccc(OCCOC(=O)[C@@H]3C[C@@H]4C(=O)N5CCC[C@H]5C(=O)N4[C@@H]3c3ccc(O)cc3)cc2)[C@]12C(=O)Nc1ccccc12 reported_endpoint=z-score observed_result=-0.212
compound=CCCCC=C[C@@H](NC(=O)c1cccs1)c1ccccc1 reported_endpoint=z-score observed_result=-0.817
compound=O=c1oc(-c2ccccc2)nc2cc(Br)ccc12 reported_endpoint=z-score observed_result=-0.0586
compound=C=C(CCCC)C(=O)CC[C@H](OC(=O)c1cccnc1)c1cccc(OCCO)c1 reported_endpoint=z-score observed_result=-0.726
compound=O=C(NCc1ccccc1)[C@]1(CCS(=O)(=O)c2ccccc2)N=C(c2ccc(OCCCO)cc2)O[C@@H]1c1ccccc1 reported_endpoint=z-score observed_result=-0.762

Supply measured z-score of COC(=O)[C@@]1(Cc2ccccc2)N=C(c2ccc(OCCCO)cc2)O[C@H]1c1ccccc1N=[N+]=[N-] in your reply.
-1.11

Supply measured z-score of COCCOC(=O)N1C(=O)[C@@]2(c3cc(C#CC4=CCCCC4)ccc31)[C@H](C(=O)N1CCc3cc(OC)c(OC)cc3C1)[C@H]1C(=O)O[C@H](c3ccccc3)[C@H](c3ccccc3)N1[C@@H]2c1ccccc1OCCO in your reply.
-0.701

Supply measured z-score of CCOC(=O)C1=CCC(c2ccc([N+](=O)[O-])cc2)N(S(=O)(=O)c2ccc(C)cc2)C1 (stereo not given) in your reply.
0.877

----------
# target: Homeobox protein Hox-A13 (Mus musculus)
# method description: inhibitors of HoxA13-DNA binding, primary screen, biochemical, fluorescence polarization, labeled oligonucleotide (AID 1185)
# test conditions: 15 min, higher = more signal, called active from +8 up or from −8 down
Overview of reported z-score across a group of compounds:
Response field accepts a number only; no unit should be typed.

compound=CCOC(=O)C[C@H]1[C@H](OC(=O)c2ccccc2-c2ccccc2)[C@@H](NC(=O)c2ccc3ccccc3c2)c2cc(OCCCO)ccc2N1C(=O)c1ccc2ccccc2n1 observed_result=-2.08
compound="COC(=O)C1=CC(CCCO)=CC(C2CC2)N(Cc2sc3ccccc3c2Cl)C=C1C(=O)OC (configuration not stated)" observed_result=-5.27
compound="CC=CC(O)C1C=CC2C(=O)N(c3ccccc3)C(=O)C2N1Nc1ccc(C(C)C)cc1 (configuration not stated)" observed_result=-2.24
compound="CC1CC/C=C\\[C@H]2OC34C=CCN(Cc5ccccc5)C(=O)[C@H]3N(CCCCCO)C(=O)[C@@H]4C2C(=O)O1 (some centres not stated)" observed_result=-5.11
compound="N#Cc1ccc(NN2C(C(O)C3CCCCC3)C=CC3C(=O)N(c4ccccc4)C(=O)C32)cc1 (configuration not stated)" observed_result=-2.14
compound=O=C1C=CC(=O)[C@@H]2CC(COc3ccccc3)=C3[C@@H](CCc4ccccc4)OB(O)C[C@@H]3[C@H]12 observed_result=-5.92
compound=O=C1[C@]2(CO)C=C(Br)[C@@H](C[C@@H]2c2ccccc2)[C@@]12CO2 observed_result=-2.52
compound=COC(=O)[C@@]1(Cc2ccc(F)cc2)[C@H]2c3cc(C(=O)N(C)C)n(CCc4ccccn4)c3C[C@H]2CN1C(=O)c1ccccc1 observed_result=-2.89
compound=C=CCN1C(=O)[C@]2(O[C@H](CCO)[C@@H]([Si](C)(C)c3ccc(OC)cc3)[C@@H]2C)c2cc(NC(=O)[C@H](C)O)ccc21 observed_result=-5.5
compound=O=C/C=C/c1ccc2c(c1)OCO2 observed_result=1.04

Supply measured z-score of CC(C)CNC(=O)[C@@]1(c2ccc([N+](=O)[O-])cc2)CC(=O)N(CC23CC4CC(CC(C4)C2)C3)[C@@H]1c1ccc(CO)cc1I in your reply.
-3.42

Supply measured z-score of CCCCCCCCCCC(O)C1C=CC2C(=O)N(Cc3ccccc3)C(=O)C2N1n1cnnc1 (configuration not stated) in your reply.
-2.2

Supply measured z-score of CC(C)C(=C=CC[C@@H](O)c1ccccc1OCCO)C[C@@H](O)c1ccccn1 in your reply.
-4.89

Supply measured z-score of CN(C)CCCCCCNC(=O)[C@H]1C[C@H]2C(=O)N[C@@H](CCCCN)C(=O)N2[C@H]1c1ccc(O)cc1 in your reply.
-0.281

Supply measured z-score of CC(c1ccccc1)C(O)C1C=CC2C(=O)NC(=O)C2N1Nc1ccccn1 (configuration not stated) in your reply.
-1.82

Supply measured z-score of [N-]=[N+]=NCc1ccccc1C[C@@]1(C(=O)N2CCOCC2)N=C(c2ccc(OCCCO)cc2)O[C@@H]1c1ccccc1CN=[N+]=[N-] in your reply.
0.223

Supply measured z-score of NCCCCCCNC(=O)[C@H]1C[C@H]2C(=O)NCC(=O)N2[C@H]1c1cccc(OCCO)c1 in your reply.
-2.07

Supply measured z-score of C=C(COC)/C(=C/C[C@H](OC(=O)c1ccncc1)c1cccc(OCCO)c1)c1cc(C(=O)OC)ccc1OC in your reply.
-4.05

Supply measured z-score of COC(=O)[C@@]1(Cc2ccccc2N=[N+]=[N-])COC(c2ccc(OCCCO)cc2)=N1 in your reply.
-5.06

Supply measured z-score of C=CC(COC(C)=O)NS(=O)(=O)c1ccc(Br)cc1 (configuration not stated) in your reply.
-0.546

Supply measured z-score of CC(C)(C)OC(=O)CC[C@@]1(C(=O)NCCN2CCOCC2)N=C(c2ccc(OCCCO)cc2)O[C@@H]1c1ccccc1 in your reply.
-4.84

Supply measured z-score of COc1ccc(C(O)C2C=CC3C(=O)NC(=O)C3N2Nc2ccccn2)cc1OCc1ccccc1 (configuration not stated) in your reply.
-2.68

Supply measured z-score of CC(=O)Nc1cc(Br)ccc1C(=O)O in your reply.
0.273

Supply measured z-score of CN1C(=O)C2C=CC(C(O)c3ccccn3)N(Nc3ccccc3)C2C1=O (configuration not stated) in your reply.
-7.19

Supply measured z-score of C=CCOC(=O)[C@H]1[C@@H]2C(=O)O[C@@H](c3ccccc3)[C@@H](c3ccccc3)N2[C@@H](c2ccc(OCCOC(=O)[C@@H]3C[C@@H]4C(=O)N5CCC[C@H]5C(=O)N4[C@@H]3c3ccc(O)cc3)cc2)[C@]12C(=O)Nc1ccccc12 in your reply.
1.28

Supply measured z-score of CS(=O)(=O)CCOC(=O)C1=CC(CCCO)=CC(c2cccs2)N(Cc2cc3c(cc2Br)OCO3)C=C1C(=O)OCCS(C)(=O)=O (configuration not stated) in your reply.
-2.91

Supply measured z-score of C=CCNC(=O)[C@@H]1[C@H]2C(=O)O[C@H](c3ccccc3)[C@H](c3ccccc3)N2[C@H](c2ccc(O)cc2)[C@@]12C(=O)N(C(=O)OCCOC)c1ccccc12 in your reply.
-2.07

Supply measured z-score of CC(C)C[C@@H]1NC(=O)[C@@H]2C[C@H](C(=O)NCCCCCC[N+](C)(C)C)[C@H](c3ccc(O)cc3)N2C1=O in your reply.
-2.3

Supply measured z-score of O=C1C2C=CC(C(O)c3ccc(-c4ccccc4)s3)N(n3cnnc3)C2C(=O)N1Cc1ccccc1 (configuration not stated) in your reply.
-2.98

Supply measured z-score of CCCC[C@@H]1C[C@H]1[C@@H](NC(=O)c1ccc(-c2ccccc2)cc1)c1ccc(-c2ccccc2)cc1 in your reply.
-1.24

Supply measured z-score of COc1ccc([Si](C)(C)[C@H]2[C@H](CCn3cc([C@H](O)c4ccccc4)nn3)O[C@@]3(C(=O)N(Cc4cccc(N5CCC5=O)c4)c4ccccc43)[C@@H]2C)cc1 in your reply.
-2.56

Supply measured z-score of C=CCNC(=O)[C@@H]1[C@H]2C(=O)O[C@H](c3ccccc3)[C@H](c3ccccc3)N2[C@H](c2ccccc2OCCO)[C@@]12C(=O)Nc1ccc(C#CC3=CCCCC3)cc12 in your reply.
1.71
